Items are presented alongside their recorded pKd.
Target: T1, human BCMA with a His tag (ACROBiosystems, Catalog No.: BCA-H522y) (human)
T1 construct: Bought His-tagged recombinant protein; also called huBCMA-His; Recombinant human BCMA
T1 chain: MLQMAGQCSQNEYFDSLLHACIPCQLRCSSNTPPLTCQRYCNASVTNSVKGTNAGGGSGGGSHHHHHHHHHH
Test: SPR, Biacore T200
Units for pKd: none; it is -log10 of a concentration expressed in mol/L.

>  <BINDER>
SCT-Aa11(h/h) (antibody, V domains shown, Full IgG format, chimeric: human IgG1 heavy chain constant region, human kappa light chain constant region) VH: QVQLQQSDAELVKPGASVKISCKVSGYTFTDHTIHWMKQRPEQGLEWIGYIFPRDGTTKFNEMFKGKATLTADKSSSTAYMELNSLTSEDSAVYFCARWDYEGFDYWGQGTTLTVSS VL: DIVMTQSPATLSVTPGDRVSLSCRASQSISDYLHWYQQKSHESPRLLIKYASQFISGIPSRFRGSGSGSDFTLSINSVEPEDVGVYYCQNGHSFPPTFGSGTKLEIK

>  <QUANTITY>
pKd

>  <RECORDED_NUMBER>
7.33

$$$$

Let's switch to this binder now.
Name the recorded pKd of the item SCT-Aa04(h/h) (antibody, V domains shown, Full IgG format, chimeric: human IgG1 heavy chain constant region, human kappa light chain constant region) VH: EVKLLQSGGGLVQPGGSLKLSCAASGIDFSRYWMSWVRRAPGKGLEWIGEINPDSSTINYAPSLKDKFIISRDNAKNTLYLQMSKVRSEDTALYYCASFYYDYDRGAAMDYWGQGTSVTVSS VL: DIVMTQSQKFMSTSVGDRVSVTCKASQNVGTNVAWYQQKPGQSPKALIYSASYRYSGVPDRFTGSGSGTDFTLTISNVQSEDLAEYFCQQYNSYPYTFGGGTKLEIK in your answer.
7.49
